Where these numbers come from: paper PMC3763537

EXPERIMENTAL_SYSTEM: NprR(ΔHTH)(Y223A/F225A) (B. thuringiensis strain 407)
ASSAY_METHOD_TEXT: ITC
PROPERTY: pKd
// pKd here means minus log10 of the molar concentration (mol/L)

Recorded pKd (substance NprX7 heptapeptide SKPDIVG ): 7.00
